# Test System: T1, hIL-18Rα ECD-Fc fusion protein (human, UniProt Q13478 22-329)
# T1 construct: extracellular domain; captured on Protein A sensor
# T1 sequence (looked up): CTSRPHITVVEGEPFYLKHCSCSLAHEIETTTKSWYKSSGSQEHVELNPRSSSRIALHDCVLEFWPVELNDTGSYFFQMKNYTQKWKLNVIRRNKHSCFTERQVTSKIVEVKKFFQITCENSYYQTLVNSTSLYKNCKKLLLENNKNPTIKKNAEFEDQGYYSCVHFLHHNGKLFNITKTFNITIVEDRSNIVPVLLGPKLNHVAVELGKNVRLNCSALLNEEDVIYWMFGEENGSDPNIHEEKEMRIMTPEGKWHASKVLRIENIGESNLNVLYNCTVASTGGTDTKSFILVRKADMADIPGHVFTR
# Experimental Protocol: BLI (Octet RED96), hIL-18Rα ECD-Fc on Protein A sensor; note: test concentration or dose not given here
Dear colleague, classification is by Response (nm), with ranges listed here: low bin (below 0.03 nm), mid bin (0.03 nm to below 0.09 nm), high bin (0.09 nm or more)

Form field 'band' for IL-18 variant polypeptide M33 (ligand) YFEKLHSKLSVIRNLNDQVLFIDQGNRPLFEDMTDSDCRDNAPRTIFIISMYKRSTHRGMAVTISVKCEKISTLSCENKIISFKEMNPPDNIKDTKSDIIFFQRSVPGHDNKMQFESSSYEGYFLACEKERDLFKLILKKEDELGDRSIMFTVQNED
low bin

Which bin, given its Response (nm), does IL-18 variant polypeptide M31 (ligand) YFPKLRSKLSVIRNLNDQVLFIDQGNRPLFEDMTDSDCRDNAPRTIFIISMYKHSIHRGMAVTISVKCEKISTLSCENKIISFKEMNPPDIIKDTKSDIIFFQYSVPGHDNKMQFESSSYEGYFLACEKERDLFKLILKKEDELGDRSIMFTVQNED occupy?
high bin

Assign a category based on measured Response (nm) for IL-18 variant polypeptide LM5 (ligand, soluble, E. coli-made) YFGKLRSKLSVIRNLNDQVLFIDQGNRPLFEDMTDSDCRDNAPRTIFIISMYKWSSQRGMAVTISVKCEKISTLSCENKIISFKEMNPPDNIKDTKSDIIFFQRSVPGHDNKMQFESSSYEGYFLACEKERDLFKLILKKEDELGDRSIMFTVQNED and give only the class name.
mid bin

Band for IL-18 variant polypeptide M5 (ligand) YFEKLTSKLSVIRNLNDQVLFIDQGNRPLFEDMTDSDCRDNAPRTIFIISMYKWSPWRGMAVTISVKCEKISTLSCENKIISFKEMNPPDVIKDTKSDIIFFQTSVPGHDNKMQFESSSYEGYFLACEKERDLFKLILKKEDELGDRSIMFTVQKED ?
mid bin

Hey, which category is IL-18 variant polypeptide M1 (ligand) YFPKLKSKLSVIRNLNDQVLFIDQGNRPLFEDMTDSDCRDNAPRTIFIISMYKHSDRRGMAVTISVKCEKISTLSCENKIISFKEMNPPDVIKDTKSDIIFFQVSVPGHDNKMQFESSSYEGYFLACEKERDLFKLILKKEDELGDRSIMFTVQNED in, do you know?
low bin

Using the reported Response (nm), which band applies to IL-18 variant polypeptide MM4 (ligand, soluble, E. coli-made) YFPKLRSKLSVIRNLNDQVLFIDQGNRPLFEDMTDSDCRDNAPRTIFIISMYKLSTIRGMAVTISVKCEKISTLSCENKIISFKEMNPPDGIKDTKSDIIFFQRSVPGHDNKMQFESSSYEGYFLACEKERDLFKLILKKEDELGDRSIMFTVQNED ?
low bin

Note: place this binder into its band. Item: IL-18 variant polypeptide M18 (ligand) YFPKLRSKLSVIRNLNDQVLFIDQGNRPLFEDMTDSDCRDNAPRTIFIISMYKSSRRRGMAVTISVKCEKISTLSCENKIISFKEMNPPDGIKDTKSDIIFFQSSVPGHDNKMQFESSSYEGYFLACEKERDLFKLILKKEDELGDRSIMFTVQNED
high bin
